Hey, just so you know, these numbers are from ChEMBL document CHEMBL1133951.

Test system: Plasmodium falciparum
assay overview: Antimalarial potency against Plasmodium falciparum at 0.05 ng/mL.
Format: functional
Decision: Activity beneath 30% gives Criterion met; Activity meeting or exceeding 30% gives Criterion not met.

Answered cases to consult:
[[record]]
structure = "C[C@@H]1O[C@@H](Oc2c(-c3ccc(O)c(O)c3)oc3cc(O)cc(O)c3c2=O)[C@H](O)[C@H](O)[C@H]1O[C@@H]1O[C@H](CO)[C@H](O)[C@@H](O)[C@H]1O"
category = "Criterion met"

[[record]]
structure = "O=c1c(O[C@@H]2O[C@H](CO)[C@H](O)[C@@H](O)[C@H]2O)c(-c2ccc(O)c(O)c2)oc2cc(O)cc(O)c12"
category = "Criterion not met"

[[record]]
structure = "O=c1c(O[C@@H]2O[C@H](CO[C@@H]3OC[C@@H](O)[C@H](O)[C@H]3O)[C@H](O)[C@H](O)[C@H]2O)c(-c2ccc(O)cc2)oc2cc(O)cc(O)c12"
category = "Criterion met"


Query: State whether 30% exceeds Activity recorded for C[C@@H]1O[C@@H](OC[C@H]2O[C@H](Oc3c(-c4ccc(O)c(O)c4)oc4cc(O)cc(O)c4c3=O)[C@H](O)[C@H](O)[C@H]2O)[C@H](O)[C@H](O)[C@H]1O .
Reply: Criterion not met

Query: In plain terms, does COc1cc(-c2oc3cc(O)cc(O)c3c(=O)c2O[C@H]2O[C@H](CO[C@@H]3O[C@@H](C)[C@H](O)[C@@H](O)[C@H]3O)[C@H](O)[C@@H](O)[C@H]2O)ccc1O come in under 30% for Activity?
Reply: Criterion met
